experiment: inhibition of 3D7 malaria parasite growth – strain 3D7 (AID 2306);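 note: 0% = DMSO wells and 100% = chloroquine plus artemisinin control wells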; details: P. falciparum 3D7 erythrocytic growth, LDH absorbance, 72 h; at 2 µM; hits give high values
Catalogue of compounds with associated growth inhibition
# output: bare number, implied unit %

- compound: "Cc1ccc(NC(=O)c2ccc3ncccc3c2)cc1OC1CCN(C(C)C)C1 (stereo not given)"
  unit of measurement: "%"
  growth inhibition: 95
- compound: "CC(C)(C)c1ccc(NC(=O)c2cccc(CN3CCCN(CC4CCCCC4)CC3)c2)cc1"
  unit of measurement: "%"
  growth inhibition: 93
- compound: "COC(=O)c1cccc(CNCc2ccc(-c3cccc(-c4nc5ccccc5[nH]4)c3)cc2)c1"
  unit of measurement: "%"
  growth inhibition: 101
- compound: "CCCc1cc(NCC)nc(Nc2ccc(C)cc2)n1"
  unit of measurement: "%"
  growth inhibition: 95
- compound: "CON=C1CCC(Cn2ccnc2)(c2ccc(Cl)cc2Cl)CC1 (stereo not given)"
  unit of measurement: "%"
  growth inhibition: 100
- compound: "N#Cc1ccc(CNCCCCCCCNCc2ccc(-c3ccccc3)cc2)cc1"
  unit of measurement: "%"
  growth inhibition: 87

# evaluate next
Given the compound O=S(=O)(/C=C/c1ccccc1)N(Cc1ccc(-c2ccc(CNCCc3ccccc3)cc2)cc1)CC1CCCCN1 (stereo not given) , what is its reported growth inhibition?
100
